Data provenance is ChEMBL document CHEMBL4680238.

I'd be grateful if you could share measured Vd for these entries.
Assay: Apparent volume of distribution in Sprague-Dawley rat at 5 mg/kg, iv measured up to 72 hrs by LC-MS/MS analysis
Format: ADME, organism-based
Conditions: in vivo, read-out: Vz
Residues, ends and D or L forms follow the SMILES beside them. *: point of attachment. X1 = CC(=O)O[C@@]12CO[C@@H]1C[C@H](O)[C@@]1(C)C(=O)[C@H](O)C3=C(C)[C@@H](OC(=O)[C@H](OC(=O)OCc4ccc(N*)cc4)[C@@H](NC(=O)OC(C)(C)C)c4ccccc4)C[C@@](O)([C@@H](OC(=O)c4ccccc4)[C@H]21)C3(C)C
Numbers only, in L/kg.

compound	Vd, L/kg
CC[C@H](C)[C@H](NC(=O)CNC(=O)[C@H](CCC(N)=O)NC(=O)[C@@H]1CCCN1C(=O)CNC(C)=O)C(=O)N[C@@H](C)C(=O)N[C@@H](CCSC)C(=O)N[C@@H](CCC(N)=O)C(=O)N[C@@H](CC(C)C)C(=O)Nc1ccc(COC(=O)O[C@@H](C(=O)O[C@H]2C[C@@]3(O)[C@@H](OC(=O)c4ccccc4)[C@@H]4[C@]5(OC(C)=O)CO[C@@H]5C[C@H](O)[C@@]4(C)C(=O)[C@H](O)C(=C2C)C3(C)C)[C@@H](NC(=O)OC(C)(C)C)c2ccccc2)cc1 (Ac-GPQGIAMQL-X1)	10.4

Now for another entry.
stdin: Name the recorded Vd for CC(=O)O[C@@]12CO[C@@H]1C[C@H](O)[C@@]1(C)C(=O)[C@H](O)C3=C(C)[C@@H](OC(=O)[C@H](O)[C@@H](NC(=O)OC(C)(C)C)c4ccccc4)C[C@@](O)([C@@H](OC(=O)c4ccccc4)[C@H]21)C3(C)C [DOCETAXEL ANHYDROUS] .
stdout: 22.6

###

Test: AUC (0 to t) in Sprague-Dawley rat at 5 mg/kg, iv measured up to 72 hrs by LC-MS/MS analysis
Assay type: ADME, organism-based
Set-up: route intravenous, dose 5 mg/kg, time <=72
Conditions: in vivo
Residues, ends and D or L forms follow the SMILES beside them. *: point of attachment. X1 = CC(=O)O[C@@]12CO[C@@H]1C[C@H](O)[C@@]1(C)C(=O)[C@H](O)C3=C(C)[C@@H](OC(=O)[C@H](OC(=O)OCc4ccc(N*)cc4)[C@@H](NC(=O)OC(C)(C)C)c4ccccc4)C[C@@](O)([C@@H](OC(=O)c4ccccc4)[C@H]21)C3(C)C
I'd be grateful if you could share measured AUC(0-t) at 72 h for these entries.
Answer as a quantity: numeral, then unit.

compound	observable	data_value
CC[C@H](C)[C@H](NC(=O)CNC(=O)[C@H](CCC(N)=O)NC(=O)[C@@H]1CCCN1C(=O)CNC(C)=O)C(=O)N[C@@H](C)C(=O)N[C@@H](CCSC)C(=O)N[C@@H](CCC(N)=O)C(=O)N[C@@H](CC(C)C)C(=O)Nc1ccc(COC(=O)O[C@@H](C(=O)O[C@H]2C[C@@]3(O)[C@@H](OC(=O)c4ccccc4)[C@@H]4[C@]5(OC(C)=O)CO[C@@H]5C[C@H](O)[C@@]4(C)C(=O)[C@H](O)C(=C2C)C3(C)C)[C@@H](NC(=O)OC(C)(C)C)c2ccccc2)cc1 (Ac-GPQGIAMQL-X1)	AUC(0-t) at 72 h	9.07 µg·h/mL

stdin: Name the recorded AUC(0-t) at 72 h for CC(=O)O[C@@]12CO[C@@H]1C[C@H](O)[C@@]1(C)C(=O)[C@H](O)C3=C(C)[C@@H](OC(=O)[C@H](O)[C@@H](NC(=O)OC(C)(C)C)c4ccccc4)C[C@@](O)([C@@H](OC(=O)c4ccccc4)[C@H]21)C3(C)C [DOCETAXEL ANHYDROUS] .
stdout: 0.93 µg·h/mL
